Give z-score for every item shown.
- assay_comment: Plasmodium falciparum growth inhibition, primary screen, strain 3D7, DAPI fluorescence, 100 nL (AID 1184);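 note: parasites grown inside human red blood cells in medium with human serum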
- reported_conditions: P. falciparum 3D7 growth, 3 d, higher = more signal
Would you mind answering with just the numeric figure?

Consider the compound shown here: COCCOC(=O)N1C(=O)[C@@]2(c3ccccc31)[C@H](C(N)=O)[C@H]1C(=O)O[C@H](c3ccccc3)[C@H](c3ccccc3)N1[C@@H]2c1ccc(OCCO)cc1 What is its recorded z-score?
0.0624

One more compound: C=CCC(OC(C)=O)[C@@H]1[C@@H](N(Cc2cccc3ccccc23)C(=O)c2cccc3ccccc23)c2cc(OCCCO)ccc2N1C(=O)Cc1ccc2ccccc2c1 (stereo not given in full)
-1.35

Again, but for CN(C)CCCC[C@@H]1NC(=O)[C@H]2C[C@@H](C(=O)O)[C@@H](c3cccc(OCCO)c3)N2C1=O
-0.133

Then what about the compound C=CCC(OC(C)=O)[C@@H]1[C@@H](N(Cc2cc3ccccc3o2)C(=O)Cc2ccc(OC)cc2)c2cc(OCCCO)ccc2N1C(=O)Cc1ccc(OC)cc1 (stereo not given in full) ?
-1.96

Same lookup for COCCOC(=O)N1C(=O)[C@@]2(c3cc(C#Cc4ccc(OC)cc4)ccc31)[C@H](c1ccc(OCCO)cc1)N1[C@H](c3ccccc3)[C@H](c3ccccc3)OC(=O)[C@H]1[C@@H]2C(=O)N1CCCCCCC1 , please.
-2.09

Subsequent entry: COC(=O)[C@@]1(CCC(=O)OC(C)(C)C)N=C(c2ccc(OCCCO)cc2)O[C@H]1c1ccccc1CN=[N+]=[N-]
-2.27

Can you handle O=c1cccc(-c2ccccc2C(F)(F)F)o1 next?
1.58

Next record, please: CC(C)=CCN(C(=O)C#Cc1ccccc1)[C@H](CO)c1ccccc1
-1.83

Also O=C1O[C@H](c2ccccc2)[C@H](c2ccccc2)N2[C@H]1[C@@H](C(=O)NC[C@H](O)c1ccccc1)[C@]1(C(=O)Nc3ccc(C#CCCO)cc31)[C@H]2c1ccccc1OCCO ?
-1.4

Entry COC(=O)Cn1c(C(=O)N(C)C)cc2c1C[C@H]1CN(C(=O)c3ccccc3)[C@@](Cc3ccc(OC)cc3)(C(=O)OC)[C@@H]21 please
-1.62

====

- Tested on: Noggin (protein binding on small-molecule microarray)
- assay_comment: Noggin binders on small-molecule microarray, primary screen, biochemical, 635/667 nm fluorescence (AID 1095);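 note: score merges 667 nm feature fluorescence with signal to noise over triplicate slides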
- reported_conditions: 635 nm fluorescence, higher = more signal
Label class 0 if composite z-score falls below 0.5; label class 1 in every other case.

composite z-score >= 0.5 for C=CC[C@]1(C(=O)NCCCOC)N=C(c2ccc(OCCCO)cc2)O[C@H]1c1ccccc1 ?
class 0

Also need CC(C)(C)OC(=O)CC[C@]1(C(=O)N2CCOCC2)N=C(c2ccc(OCCCO)cc2)O[C@H]1c1ccccc1CN=[N+]=[N-] , thanks.
class 1

Follow-up item: CC(=O)n1cc(C(O)C2C=CC3C(=O)N(c4ccccc4)C(=O)C3N2Nc2ccccc2F)c2ccccc21 (centres undefined)
class 0

Entry to check: COc1ccc(CCNC(=O)[C@@H]2c3ccccc3C(=O)N(CC34CC5CC(CC(C5)C3)C4)[C@H]2c2ccc(CO)cc2)cc1
class 1

Do the same for CC(=O)NCCCC[C@@H]1NC(=O)[C@H]2C[C@@H](C(=O)NCCCCCC[N+](C)(C)C)[C@@H](c3ccc(O)cc3)N2C1=O please
class 1

Again, but for CC=CC(O)C1C=CC2C(=O)N(C)C(=O)C2N1NC(=O)OC(C)(C)C (centres undefined)
class 0

Subsequent entry: CCOC(=O)C[C@H]1[C@H](OC(=O)c2ccc(-c3ccccc3)cc2)[C@@H](NC(=O)CC(C)C)c2cc(OCCCO)ccc2N1C(=O)Cc1ccc(OC)cc1
class 0

Lookup C=CCC(OC(C)=O)[C@@H]1[C@@H](N(Cc2ccc(-c3cccc(C(F)(F)F)c3)o2)C(=O)Cc2ccc(F)cc2)c2cc(OCCCO)ccc2N1C(=O)c1ccc2ccccc2c1 (some centres undefined)
class 0

Can you handle C#CCN=C(N)N next?
class 1

Can you check C=CCOC(=O)[C@H]1[C@@H]2C(=O)O[C@@H](c3ccccc3)[C@@H](c3ccccc3)N2[C@@H](c2ccc(OCCOC(=O)[C@@H]3C[C@@H]4C(=O)N[C@@H](Cc5ccccc5)C(=O)N4[C@@H]3c3ccc(O)cc3)cc2)[C@]12C(=O)Nc1ccccc12 next?
class 1

Record: COCCCNC(=O)[C@@]1(Sc2ccc(C)cc2)CC(=O)N(C2CCCCC2)[C@@H]1c1ccc(CO)cc1I
class 0

Similarly, CC(C)C(=C=CC[C@@H](O)c1cccc(OCCO)c1)CCO ?
class 0

Ok, now CC(=O)NCCCC[C@@H]1NC(=O)[C@@H]2C[C@H](C(=O)NCCCCCC[N+](C)(C)C)[C@H](c3ccc(O)cc3)N2C1=O
class 1

Please answer likewise for COC(=O)[C@@]1(Cc2ccccc2)[C@@H]2[C@@H](CC(=O)[C@H]2CC(=O)C(=O)N(C)C)CN1C(=O)c1ccccc1
class 0

Again, but for CC(C)C[C@@H]1NC(=O)[C@H]2C[C@@H](C(=O)NCCCCCNC(=O)CS)[C@@H](c3ccc(O)cc3)N2C1=O
class 1

What would you report for C=C(COC)/C(=C/C[C@H](OC(=O)c1ccncc1)c1cccc(OCCO)c1)c1cnc2ccccc2c1 ?
class 1

Would you mind doing CC(C)N1CC=CC23O[C@@H]4C=CCCOC(=O)C4[C@H]2C(=O)N(CCCCCO)[C@@H]3C1=O (some centres undefined) as well?
class 0

CCOC(=O)C[C@H]1[C@H](OC(=O)Cc2ccc3c(c2)OCO3)[C@@H](NC(=O)c2ccccc2)c2cc(OCCCO)ccc2N1C(=O)Cc1ccc(OC)cc1 ?
class 0

Check CCCCC(O)C1C=CC2C(=O)N(C)C(=O)C2N1Nc1ccccc1 (centres undefined) too.
class 0

====

Answer each item with its documented z-score.
- assay_comment: HepG2 liver cancer cell viability effects, profiling panel, resazurin fluorescence, 24 h, PK04 Diversity Set (AID 1172); note: test concentration not given here
- reported_conditions: higher = more signal
// no unit string in output, number only

Item under review: C=C(COC)C(=O)CC[C@@H](OC(=O)c1cccnc1)c1cccc(OCCO)c1 . Reported z-score?
0.312

Repeat with CCCCC(=C=CC[C@@H](O)c1ccc(OCCO)cc1)C[C@@H](O)c1ccccn1
-0.517

Next: O=C1C2C=CC(C(O)C(c3ccccc3)c3ccccc3)N(Nc3ccccc3)C2C(=O)N1c1ccccc1 (stereo not drawn)
0.9

Okay, and O=C(NCC(F)(F)F)[C@@H]1c2ccccc2C(=O)N(CC23CC4CC(CC(C4)C2)C3)[C@H]1c1ccc(CO)cc1 ?
0.26

Same lookup for NC(=O)NCC#Cc1ccc2c(c1)[C@]1(C(=O)N2)[C@H](C(=O)N2CCCCCCC2)[C@H]2C(=O)O[C@H](c3ccccc3)[C@H](c3ccccc3)N2[C@@H]1c1ccc(O)cc1 , please.
0.0542

Input CCCCC(=C=CC[C@H](O)c1ccc(OCCO)cc1)C[C@H](O)c1ccccn1
0.325

COCC(=C=CC[C@@H](O)c1cccc(OCCO)c1)C[C@@H](O)COCc1ccccc1 , same question.
0.744

Okay, and NC(=O)[C@@]1(CCS(=O)(=O)c2ccccc2)COC(c2ccc(OCCCO)cc2)=N1 ?
-0.285

====

- assay_comment: RPMI8226 myeloma cell viability, profiling panel, resazurin fluorescence, basal, 24 h, PK04 Diversity Set (AID 1180);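 note: RPMI8826 multiple myeloma cell line at 5000 cells per well; test concentration not given here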
- reported_conditions: higher = more signal
assay_metric: z-score
Number only, please.

State the recorded z-score for this entry: CN1C=C(C(=O)OCCS(C)(=O)=O)C(C(=O)OCCS(C)(=O)=O)=CC(CCCO)=CC1c1ccc(CN2CCCC2)cc1 (configuration not stated)
0.274

Try this compound next: O=C1C2C=CC(C(O)c3cccs3)N(Nc3ccccc3)C2C(=O)N1c1ccccc1 (configuration not stated)
-0.717

Here is the next compound: Cc1ccc(F)cc1S(=O)(=O)N[C@@H]1CCN(Cc2ccc3c(c2)OCO3)C1
0.224

Another compound: [N-]=[N+]=NCc1ccccc1C[C@]1(C(=O)NCc2ccccc2)N=C(c2ccc(OCCCO)cc2)O[C@H]1c1ccccc1CN=[N+]=[N-]
-0.28

What about this compound? CCC(CC)C(O)C1C=CC2C(=O)N(C)C(=O)C2N1N1CCCCC1 (configuration not stated)
-1.12

Next entry: CC(C)(C)OC(=O)CC[C@]1(C(=O)N2CCOCC2)N=C(c2ccc(OCCCO)cc2)O[C@H]1c1ccccc1CN=[N+]=[N-]
0.0933

Now try CCCC=C(CCC)[C@@H](NC(=O)c1ccco1)c1ccc(C(=O)OC)cc1 .
-2.8

Lookup CCCCCN1CC=CC23O[C@@H]4C=CCOC(=O)[C@@H]4[C@H]2C(=O)N(CCCCCO)[C@@H]3C1=O (some centres not stated)
0.0715

// same read-out, input: NC(=O)[C@@]1(CCS(=O)(=O)c2ccccc2)COC(c2ccc(OCCCO)cc2)=N1
-0.318

How about COCCOC(=O)N1C(=O)[C@@]2(c3cc(C#CC4=CCCCC4)ccc31)[C@H](c1ccc(OCCO)cc1)N1[C@H](c3ccccc3)[C@H](c3ccccc3)OC(=O)[C@H]1[C@@H]2C(=O)N1CCCCCCC1 ?
-0.435

Proceed to CN(C)CCCC[C@@H]1NC(=O)[C@@H]2C[C@H](C(=O)NCc3ccc(F)cc3)[C@H](c3ccc(O)cc3)N2C1=O
-0.0587

// query: NCCCC[C@@H]1NC(=O)[C@H]2C[C@@H](C(=O)O)[C@@H](c3cccc(OCCO)c3)N2C1=O
-0.438

Quick one: [N-]=[N+]=NCc1ccccc1C[C@]1(C(=O)N2CCCCC2)N=C(c2ccc(OCCCO)cc2)O[C@H]1c1ccccc1
-5.14

Please answer likewise for COCCCNC(=O)[C@@H]1c2ccccc2C(=O)N(C2CCCCC2)[C@H]1c1ccc(CO)cc1
0.505

Would you kindly repeat that for CN(C)CCCC[C@@H]1NC(=O)[C@H]2C[C@@H](C(=O)O)[C@@H](c3cccc(OCCO)c3)N2C1=O ?
0.546

Ok, now COCCOC(=O)N1C(=O)[C@@]2(c3cc(C#CCC(C(=O)OC)C(=O)OC)ccc31)[C@H](C(=O)N1CCc3cc(OC)c(OC)cc3C1)[C@H]1C(=O)O[C@H](c3ccccc3)[C@H](c3ccccc3)N1[C@@H]2c1ccc(O)cc1
-0.888

Follow-up item: CC(=O)c1ccc(C(O)C2C=CC3C(=O)NC(=O)C3N2Nc2ccc(Cl)cc2Cl)cc1 (configuration not stated)
-1.8

Now give it for COc1ccc(CCNC(=O)[C@@]2(C)c3ccccc3C(=O)N(Cc3cc(C(F)(F)F)cc(C(F)(F)F)c3)[C@H]2c2ccc(CO)cc2)cc1 too.
0.639

Then this compound: C#CCN=C(N)N
0.0428

Similarly, COC(=O)[C@@H]1N=C(c2ccc(OCCCO)cc2)O[C@@H]1c1ccccc1CN=[N+]=[N-] ?
0.11

How about this compound: C=CCOC(=O)[C@H]1[C@@H]2C(=O)O[C@@H](c3ccccc3)[C@@H](c3ccccc3)N2[C@@H](c2ccc(OCCOC(=O)[C@@H]3C[C@@H]4C(=O)N[C@@H](CC(C)C)C(=O)N4[C@@H]3c3ccc(O)cc3)cc2)[C@]12C(=O)Nc1ccc(I)cc12
0.518

Now the compound C=CCNC(=O)[C@H]1[C@@H]2C(=O)O[C@@H](c3ccccc3)[C@@H](c3ccccc3)N2[C@@H](c2ccc(O)cc2)[C@]12C(=O)Nc1ccc(C#CC3=CCCCC3)cc12
-5.43

Here is the next compound: C=C(COC)/C(=C/C[C@H](OC(=O)c1ccncc1)c1ccc(OCCO)cc1)c1cc(C(=O)OC)ccc1OC
-0.316

Try this compound too: COCCOC(=O)N1C(=O)[C@@]2(c3ccccc31)[C@H](C(=O)N1CCCCCCC1)[C@H]1C(=O)O[C@H](c3ccccc3)[C@H](c3ccccc3)N1[C@@H]2c1ccc(O)cc1
-1.03

Another: CCCC=C(CCC)[C@@H](NC(=O)c1ccccc1)c1ccc(C(=O)OC)cc1
-0.0265

Now this one: CCCC[C@@H](O)C1=C(COC)Cn2c(=O)n(-c3ccccc3)c(=O)n2[C@H]1CO
-0.0456

Same lookup for CCOC(=O)C1=C(C(=O)OCC)N(S(=O)(=O)CC[Si](C)(C)C)[C@H](c2ccccc2)CC1 , please.
-4.03

From: PubChem BioAssay
